# key: entry, value: degree of damage to the plants (% damage vs untreated control), Poa
System: Poa
assay-info: Pre-emergence test/Greenhouse, Poa
Assay type: in vivo
stated-conditions: 8 g of ai./ha, after three weeks
Method: To produce a suitable preparation of the active compound, 1 part by weight of active compound is mixed with the stated amount of solvent, the stated amount of emulsifier is added and the concentrate is diluted with water to the desired concentration. Seeds of the test plants are sown in normal soil. After about 24 hours, the soil is watered with the preparation of active compound. Advantageously, the amount of water per unit area is kept constant. […]
Field: numeric (%). Do not append units.

Please review the entries below; each comes with its answer.
Form field - read-out: degree of damage to the plants (% damage vs untreated control), Poa; system: Poa; submitted item: CCCOc1nn(C(=O)NS(=O)(=O)c2c(C)cccc2C(=O)OC)c(=O)n1C1CC1
90

Fill in the recorded degree of damage to the plants (% damage vs untreated control), Poa for this compound, with Poa as test system: COC(=O)c1cccc(C)c1S(=O)(=O)NC(=O)n1nc(OC)n(C2CC2)c1=O
95

Notebook: pull reported degree of damage to the plants (% damage vs untreated control), Poa for Poa, entry CCOc1nn(C(=O)NS(=O)(=O)c2c(C)cccc2C(=O)OC(C)C)c(=O)n1C
95

Below: the item to evaluate.
Give degree of damage to the plants (% damage vs untreated control), Poa (Poa) of the following compound: CCOc1nn(C(=O)NS(=O)(=O)c2c(C)cccc2C(=O)OC(C)C)c(=O)n1C1CC1
95

----------
List of degree of damage to the plants (% damage vs untreated control), Lolium values.
System: Lolium
assay-info: Pre-emergence test/Greenhouse, Lolium
Format: in vivo
stated-conditions: 15 g of ai./ha, after three weeks
Procedure: To produce a suitable preparation of the active compound, 1 part by weight of active compound is mixed with the stated amount of solvent, the stated amount of emulsifier is added and the concentrate is diluted with water to the desired concentration. Seeds of the test plants are sown in normal soil. After about 24 hours, the soil is watered with the preparation of active compound. Advantageously, the amount of water per unit area is kept constant. […]
Report the value in % with no unit label.

Sample records with degree of damage to the plants (% damage vs untreated control), Lolium:
Need degree of damage to the plants (% damage vs untreated control), Lolium of COC(=O)c1cccc(C)c1S(=O)(=O)NC(=O)n1nc(OC(C)C)n(C2CC2)c1=O [Example 166] , thanks.
90

Recorded degree of damage to the plants (% damage vs untreated control), Lolium of CCSc1nn(C(=O)NS(=O)(=O)c2c(C)cccc2C(=O)OC)c(=O)n1C [Example 141] , please.
90

Looking for the measured degree of damage to the plants (% damage vs untreated control), Lolium of COC(=O)c1cccc(C)c1S(=O)(=O)NC(=O)n1nc(OCC(F)(F)F)n(C2CC2)c1=O [Example 142] , can you help?
95

Next:
What value of degree of damage to the plants (% damage vs untreated control), Lolium has been reported for the following molecule? COC(=O)c1cccc(C)c1S(=O)(=O)NC(=O)n1nc(SCCF)n(C2CC2)c1=O [Example 151]
90

degree of damage to the plants (% damage vs untreated control), Lolium for COC(=O)c1scc(C)c1S(=O)(=O)NC(=O)n1nc(OC)n(C)c1=O [Example 31] ?
95

Return reported degree of damage to the plants (% damage vs untreated control), Lolium; argument: C=CCOc1nn(C(=O)NS(=O)(=O)c2c(C)cccc2C(=O)OC)c(=O)n1C1CC1 [Example 147]
95

----------
System: Maize
assay-info: Pre-emergence test/Greenhouse, Maize
Format: in vivo
stated-conditions: in vivo
assay-endpoint: degree of damage to the plants (% damage vs untreated control), Maize (%)
Give a bare numeral; the unit % is implied.

For orientation, consider the following solved cases.
I have this compound here, CCOC(=O)c1scc(C)c1S(=O)(=O)NC(=O)n1nc(OC)n(C)c1=O [Example 57] , and I need its recorded degree of damage to the plants (% damage vs untreated control), Maize.
0

Find the recorded degree of damage to the plants (% damage vs untreated control), Maize belonging to CCOc1nn(C(=O)NS(=O)(=O)c2c(C)csc2C(=O)OC(C)C)c(=O)n1C [Example 76] and report it.
0

degree of damage to the plants (% damage vs untreated control), Maize lookup needed for C#CCSc1nn(C(=O)NS(=O)(=O)c2c(C)csc2C(=O)OC)c(=O)n1C [Example 51] , thanks.
0

Requested read-out: degree of damage to the plants (% damage vs untreated control), Maize. Entry: CCCOC(=O)c1cccc(C)c1S(=O)(=O)NC(=O)n1nc(OC(C)C)n(C)c1=O [Example 23]
0

Others:
# degree of damage to the plants (% damage vs untreated control), Maize lookup, item CCOC(=O)c1scc(C)c1S(=O)(=O)NC(=O)n1nc(SC)n(C)c1=O [Example 55]
10

What measured degree of damage to the plants (% damage vs untreated control), Maize goes with CCCOC(=O)c1scc(C)c1S(=O)(=O)NC(=O)n1nc(OC)n(C)c1=O [Example 89] ?
0

If you can, please state the reported degree of damage to the plants (% damage vs untreated control), Maize value of CCCc1nn(C(=O)NS(=O)(=O)c2c(C)csc2C(=O)OC(C)C)c(=O)n1C [Example 108] .
5

# query: degree of damage to the plants (% damage vs untreated control), Maize of entry COCc1nn(C(=O)NS(=O)(=O)c2c(C)csc2C(=O)OC)c(=O)n1C1CC1 [Example 28]
0

Can you look up the measured degree of damage to the plants (% damage vs untreated control), Maize of COC(=O)c1scc(C)c1S(=O)(=O)NC(=O)n1nc(SC)n(C)c1=O [Example 6] for me?
0

Any idea what its degree of damage to the plants (% damage vs untreated control), Maize is? The compound is CCSc1nn(C(=O)NS(=O)(=O)c2c(C)cccc2C(=O)OC)c(=O)n1OC [Example 157]
0

# get_value(readout='degree of damage to the plants (% damage vs untreated control), Maize', item= CCCc1nn(C(=O)NS(=O)(=O)c2c(C)csc2C(=O)OC)c(=O)n1C [Example 35] )
0

Can you share its degree of damage to the plants (% damage vs untreated control), Maize? I mean this compound: C=CCOc1nn(C(=O)NS(=O)(=O)c2c(C)cccc2C(=O)OC)c(=O)n1C1CC1 [Example 147]
30

----------
Test system: Matricaria
assay-info: Pre-emergence test/Greenhouse, Matricaria
Format: in vivo
stated-conditions: 60 g of ai./ha, after three weeks
assay-endpoint: degree of damage to the plants (% damage vs untreated control), Matricaria (%)
Report as a plain number; the unit % is understood.

Worked cases, answers included:
# input molecule: COC(=O)c1cccc(C)c1S(=O)(=O)NC(=O)n1nc(SC)n(OC)c1=O ; wanted: its degree of damage to the plants (% damage vs untreated control), Matricaria
95

Given the entry CCSc1nn(C(=O)NS(=O)(=O)c2c(C)csc2C(=O)OC)c(=O)n1C , report its measured degree of damage to the plants (% damage vs untreated control), Matricaria.
95

Continuing:
Which degree of damage to the plants (% damage vs untreated control), Matricaria is reported for this molecule? C=CCOc1nn(C(=O)NS(=O)(=O)c2c(C)cccc2C(=O)OC)c(=O)n1C
80

// returns reported degree of damage to the plants (% damage vs untreated control), Matricaria for input CCOC(=O)c1cccc(C)c1S(=O)(=O)NC(=O)n1nc(SC)n(C)c1=O
95

Recorded degree of damage to the plants (% damage vs untreated control), Matricaria of CCOn1c(SC)nn(C(=O)NS(=O)(=O)c2c(C)cccc2C(=O)OC)c1=O , please.
80

Which degree of damage to the plants (% damage vs untreated control), Matricaria is reported for this molecule? CCCc1nn(C(=O)NS(=O)(=O)c2c(C)csc2C(=O)OCC)c(=O)n1C
100

Fill blank: measured degree of damage to the plants (% damage vs untreated control), Matricaria of the molecule CCCc1nn(C(=O)[N-]S(=O)(=O)c2c(C)cccc2C(=O)OC)c(=O)n1C.[Na+] is ____.
70

For the molecule CCOn1c(SCC)nn(C(=O)NS(=O)(=O)c2c(C)cccc2C(=O)OC)c1=O , what degree of damage to the plants (% damage vs untreated control), Matricaria is on record?
95

----------
Test system: Sorghum
assay-info: Pre-emergence test/Greenhouse, Sorghum
Type: in vivo
stated-conditions: 125 g of ai./ha, after three weeks
assay-endpoint: degree of damage to the plants (% damage vs untreated control), Sorghum (%)
Give your result in % as a bare value.

Reference set (5 entries):
May I ask what degree of damage to the plants (% damage vs untreated control), Sorghum has been recorded for Cc1csc(C(=O)OC(C)C)c1S(=O)(=O)NC(=O)n1nc(OC(C)C)n(C)c1=O ?
90

Param item = COC(=O)c1cccc(C)c1S(=O)(=O)NC(=O)n1nc(SCC(F)(F)F)n(C2CC2)c1=O ; retrieve measured degree of damage to the plants (% damage vs untreated control), Sorghum.
80

Form field: reported degree of damage to the plants (% damage vs untreated control), Sorghum of COC(=O)c1cccc(C)c1S(=O)(=O)NC(=O)n1nc(OCC2CC2)n(C2CC2)c1=O
90

degree of damage to the plants (% damage vs untreated control), Sorghum for CCOC(=O)c1scc(C)c1S(=O)(=O)NC(=O)n1nc(C(C)C)n(C)c1=O ?
60

Name the recorded degree of damage to the plants (% damage vs untreated control), Sorghum for CCOc1nn(C(=O)NS(=O)(=O)c2c(C)csc2C(=O)OC(C)C)c(=O)n1CC .
70

***
Need degree of damage to the plants (% damage vs untreated control), Sorghum, item CCCOC(=O)c1scc(C)c1S(=O)(=O)NC(=O)n1nc(OCC)n(C)c1=O
90

Which degree of damage to the plants (% damage vs untreated control), Sorghum is reported for this compound? CCCOC(=O)c1cccc(C)c1S(=O)(=O)NC(=O)n1nc(OCC)n(C)c1=O
95

Given the compound COC(=O)c1cccc(C)c1S(=O)(=O)NC(=O)c1noc(C)n1 , what is its reported degree of damage to the plants (% damage vs untreated control), Sorghum?
60
